Tested on: MALME-3M melanoma
Experiment: NCI tumour cell line growth inhibition, 48 h
recorded.endpoint: GI50

Completed entries (count: 2):
- molecule: "O=C(Nc1ccc(-c2nc3ccc(NC(=O)c4ccc(Cl)cc4)cc3[nH]2)cc1)c1ccc(Cl)cc1"
  target.desc: "MALME-3M melanoma"
  result: "3.79 µM"
- molecule: "CC(=O)OCC1OC(O[C@@H]2C[C@H]3C(C)(C)[C@H](OC(C)=O)CC[C@]3(C)[C@H]3CC[C@@H]4[C@]5(CC[C@@]4(C)[C@@]32C)O[C@@H]([C@H](O)C(C)(C)O)C[C@@H]5C)C(O)C(O)C1O (stereo partly drawn)"
  target.desc: "MALME-3M melanoma"
  result: "10.3 µM"

Please find the next molecule below.
Lab note: Cc1cc(C#Cc2ccccc2)ccc1-n1c(/C=C/c2ccc(O)cc2)nc2ccccc2c1=O gave GI50 of 2.12 µM

Values compiled from PubChem BioAssay (NCI).
